Biological target: T1, recombinant full-length human PABPN1 (nuclear poly(A)-binding protein 1), T7-tagged and His-tagged, produced … (human, UniProt Q86U42 1-306)
T1 construct: also called recombinant PABPN1; T7-tagged PABPN1; not shown: T7 Tag and His Tag from vector pET28a
T1 sequence (looked up): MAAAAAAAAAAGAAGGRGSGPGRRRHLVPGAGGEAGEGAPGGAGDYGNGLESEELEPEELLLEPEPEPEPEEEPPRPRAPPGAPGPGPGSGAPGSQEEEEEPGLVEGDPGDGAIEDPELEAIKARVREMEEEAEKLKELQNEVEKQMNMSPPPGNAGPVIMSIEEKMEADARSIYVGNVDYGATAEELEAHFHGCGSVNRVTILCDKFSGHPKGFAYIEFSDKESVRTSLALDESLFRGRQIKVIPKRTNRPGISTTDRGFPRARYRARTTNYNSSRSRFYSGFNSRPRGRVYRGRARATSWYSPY
Experiment: BIAcore affinity measurement (SPR)
Outcome measure: Kd
Put your answer as a value accompanied by its unit after it.

Check out these entries, answers already filled in.
Request: Tell me the measured Kd of VHH 3E9 (VHH) VHH: QVQLQESGGGLVQPGGSLRLSCVASGFTFSDNAMSWVRRAPGKGLEWVSAINRAGDSARYADSVKGRFTISRDNAKNTLYLQMNSLKPEDTAVYYCTNGGNYRGQGTQVTVSA , please.
Response: 14 nM

Request: Tell me the measured Kd of VHH 29 (VHH, also called antibody fragment 29) VHH: QVQLVESGGGLVQAGDSLRLSCAASGRTFSSYVMGWFRQAPGKEREFVAAVTGGGISTYYADSVKGRFTISRDNAKNTVYLQMNSLTPEDTAVYYCYARRLNSWGQGTQVTISS , please.
Response: 11 nM

Request: Tell me the measured Kd of VHH 3A9 (VHH) VHH: QVQLVESGGDLVQAGGSLRLSCAASGHTFDSYGMGWFRQRPGKGREFVAAITMIGGSTHYADSAKGRFTISRDNTKNTISLQMNSLKPEDTAVYYCHAFSRSRFEGYWGQGIQVTVSS , please.
Response: 8 nM

Request: Tell me the measured Kd of VHH 08 (VHH, Alignment gaps removed) VHH: EVQLVESGGGLVQPGGSLRLSCVASGRTSRISRMAWFRQVPGNERELVATMSSSGITSYAGSVKGRFTISRDNAKNTVDLQMNSLKPEDTAVYYCKYSSRWNIYWGQGTQVTVSS , please.
Response: 57 nM

# input for lookup
Request: Tell me the measured Kd of VHH 18 (VHH, Alignment gaps removed) VHH: AVQLVESGGGLVQAGGSLRLSCAASGSIVSLATMGWYRQAPGNQRELVATMSSSGITSYAGSVKGRFTYSRDNAKNTVDLQMNSLKPEDTAVYYCKYSSRWNIYWGQGTLVTVSS , please.
Response: 7 nM
